system: Pseudomonas fluorescens (Ps.fl); experiment: Alternate Minimum Inhibitory Concentration test, Ps.fl (Table 7); assay type: cell-based; conditions: TSB, 72 hours, 30° C.
Property label: MIC

CC(=O)C(S/C=C\C(=O)NCc1ccccc1)C(C)=O : > 500 µg/mL

The compound "CC(=O)C(S/C(Cl)=C(/C)C(=O)Nc1ccc(Cl)cc1)C(C)=O" showed MIC equal to 4 to 16 µg/mL

The compound "CC(=O)C(S/C(Cl)=C(/C)C(=O)Nc1ccccc1)C(C)=O" showed MIC equal to 16 µg/mL

The compound "CC(=O)C(S/C(Cl)=C\C(=O)Nc1ccc(Cl)cc1)C(C)=O" showed MIC equal to > 500 µg/mL

The compound "CC(=O)C(S/C=C(/C)C(=O)Nc1ccc(Cl)cc1)C(C)=O" showed MIC equal to > 500 µg/mL

The compound "CC(=O)C(S/C=C\C(=O)NCc1ccc(Cl)cc1)C(C)=O" showed MIC equal to > 500 µg/mL

The compound "CC(=O)C(S/C=C\C(=O)NCCc1ccccc1)C(C)=O" showed MIC equal to > 500 µg/mL

###

tested on: Aspergillus niger (A.n); test: Alternate Minimum Inhibitory Concentration test, A.n (Table 7); format: cell-based; conditions: TSB, 72 hours, 30° C.
Property label: MIC

CC(=O)C(S/C=C\C(=O)NCCc1ccccc1)C(C)=O : 63 to 500 µg/mL
CC(=O)C(S/C(Cl)=C(/C)C(=O)Nc1ccccc1)C(C)=O : < 4 µg/mL

The compound "CC(=O)C(S/C=C(/C)C(=O)Nc1ccc(Cl)cc1)C(C)=O" showed MIC equal to 31 to 63 µg/mL

The compound "CC(=O)C(S/C(Cl)=C(/C)C(=O)Nc1ccc(Cl)cc1)C(C)=O" showed MIC equal to 4 to 8 µg/mL

The compound "CC(=O)C(S/C=C\C(=O)NCc1ccc(Cl)cc1)C(C)=O" showed MIC equal to 31 to 500 µg/mL

The compound "CC(=O)C(S/C(Cl)=C\C(=O)Nc1ccc(Cl)cc1)C(C)=O" showed MIC equal to > 500 µg/mL

The compound "CC(=O)C(S/C=C\C(=O)NCc1ccccc1)C(C)=O" showed MIC equal to 125 to 500 µg/mL

###

system: Staphylococcus aureus (S.a); test: Alternate Minimum Inhibitory Concentration test, S.a (Table 7); assay type: cell-based; conditions: TSB, 72 hours, 30° C.
Property label: MIC (µg/mL)
Supply the numeric figure in µg/mL, leaving out any unit text.

Worked examples, 3 compounds total:
CC(=O)C(S/C=C\C(=O)NCCc1ccccc1)C(C)=O [Example 3] : 63
CC(=O)C(S/C(Cl)=C(/C)C(=O)Nc1ccccc1)C(C)=O [Example 5] : 8
CC(=O)C(S/C=C(/C)C(=O)Nc1ccc(Cl)cc1)C(C)=O [Example 7] : 125

The compound CC(=O)C(S/C=C\C(=O)NCc1ccccc1)C(C)=O [Example 2] showed MIC equal to 31

The compound CC(=O)C(S/C=C\C(=O)NCc1ccc(Cl)cc1)C(C)=O [Example 4] showed MIC equal to 31
